Biological target: Gal(b1-4)GlcNAc(b1-3)Gal(b1-4)GlcNAc(b1-3)Gal(b1-4)GlcNAc(b1-3)Gal(b1-4)GlcNAc(b1-2)[Gal(b1-4)GlcNAc(b1-3)Gal(b1-4)GlcNAc(b1-3)Gal(b1-4)GlcNAc(b1-3)Gal(b1-4)GlcNAc(b1-6)]Man(a1-6)[Gal(b1-4)GlcNAc(b1-3)Gal(b1-4)GlcNAc(b1-3)Gal(b1-4)GlcNAc(b1-3)Gal(b1-4)GlcNAc(b1-2)Man(a1-3)]Man(b1-4)GlcNAc(b1-4)[Fuc(a1-6)]GlcNAc
Experiment: glycan array binding signal (z-score within array); higher = stronger binding
Details: glycan notation: IUPAC condensed, linker removed
About 410 targets per protein were measured; listed, in parts, are those with the strongest signals and a random draw of the rest.
quantity-name: glycan array binding signal (z-score)
Field format: numeric only.

RbmA (Vibrio cholerae), A0A2H4NFB8 (protein) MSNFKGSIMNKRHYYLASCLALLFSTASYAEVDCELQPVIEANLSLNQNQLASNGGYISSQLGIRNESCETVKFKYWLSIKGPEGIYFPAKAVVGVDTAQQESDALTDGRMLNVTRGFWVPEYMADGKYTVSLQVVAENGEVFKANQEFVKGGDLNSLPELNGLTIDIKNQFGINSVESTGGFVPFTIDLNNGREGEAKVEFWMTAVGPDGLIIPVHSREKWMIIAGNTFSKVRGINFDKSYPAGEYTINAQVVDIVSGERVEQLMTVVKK: 4.03

Challenge: Can you look up the measured glycan array binding signal (z-score) of FimA-N1 (Actinomyces oris) (protein) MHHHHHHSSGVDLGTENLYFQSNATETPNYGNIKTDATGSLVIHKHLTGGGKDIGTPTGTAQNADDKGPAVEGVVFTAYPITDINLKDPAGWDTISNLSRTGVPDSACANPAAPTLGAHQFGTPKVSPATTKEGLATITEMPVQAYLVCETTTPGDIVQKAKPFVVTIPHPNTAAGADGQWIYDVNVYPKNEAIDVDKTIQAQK for me?
Response given: 1.54
